# protocol text: G protein-coupled receptor (GPCR) small molecule agonists, calcium flux assay: HEK293 wild type cell line counter screen (AID 1920065)
# condition label: HEK293 WT calcium flux, fluorescence, agonist mode; series mostly up to 57.6 µM
Activity calls are given as the source filed them. Calls come from the whole dose curve.
parameter measured: activation

These recorded examples may help you get a feel for the data.
molecule: O=c1[nH]c(=O)c2ccccc2o1
parameter measured: activation
reported: inactive

molecule: O=P(O)(OCc1ccccc1)OCc1ccccc1
parameter measured: activation
reported: inactive

molecule: COc1cc(C=O)ccc1OC(=O)C(C)C
parameter measured: activation
reported: inactive

molecule: CCCCCCCCCCCC[N+](C)(C)CCCS(=O)(=O)[O-]
parameter measured: activation
reported: inactive

molecule: CC(C)(Oc1ccc(CCNC(=O)c2ccc(Cl)cc2)cc1)C(=O)O
parameter measured: activation
reported: inactive

**Q:** I have this molecule here, CC/C=C\C#N , and I need its recorded activation.
**A:** inactive

---

# protocol text: Nuclear factor erythroid 2-related factor 2/antioxidant responsive element (Nrf2/ARE) small molecule agonists: qHTS cell viability counter screen in human keratinocytes (AID 1919968); note: nearly all actives have a fitted effect of over 55% in size
# condition label: KeratinoSens HaCaT ARE cells viability, CellTiter-Fluor, 24 h; series mostly up to 92.4 µM
Inconclusive results are not listed. Calls of active or inactive are those of the source. Calls come from the whole dose curve; as a rule, active = well fitted cell-killing curve with a large enough effect in the repeat runs; inconclusive = weak or mixed curves, or effect the other way; inactive = flat fitted curve, though single readings scatter.
Could you please pick one outcome from this set? active, inactive

**Q:** Recorded call for CC(C)COC(=O)c1ccc(N)cc1 ?
**A:** inactive

**Q:** Entry to check: O=S(=O)(O)c1cccc(S(=O)(=O)O)c1
**A:** inactive

**Q:** Entry to check: C=C(C)C(=O)OCCCCCCOC(=O)C(=C)C
**A:** inactive

**Q:** Entry to check: CN(C1CCCCC1)S(=O)(=O)c1ccccc1N
**A:** inactive

**Q:** Entry to check: CCC(C)CO (configuration not stated)
**A:** inactive

**Q:** Entry to check: CCC1COC(=O)O1 (configuration not stated)
**A:** inactive

**Q:** Entry to check: Cc1c(O)cccc1C(=O)N[C@@H](CSc1ccccc1)[C@H](O)CN1C[C@H]2CCCC[C@H]2C[C@H]1C(=O)NC(C)(C)C
**A:** active

---

# test target: 5-hydroxytryptamine receptor 2A (Homo sapiens)
# protocol text: 5-hydroxytryptamine receptor 2A (HTR2A) small molecule agonists, cell-based qHTS assay (AID 1963587); note: nearly all actives have a fitted effect of over 30% in size
# condition label: HTR2A-CHO cells, calcium flux fluorescence, agonist mode; series mostly up to 76.8 µM
Results filed as inconclusive are left out. Active and inactive are the calls of the source. The call rests on the fitted dose curve.
parameter measured: activation

These recorded examples may help you get a feel for the data.
compound: CC(C)CCCO
parameter measured: activation
reported: inactive
--
compound: CCC(=O)OC(C)c1ccccc1 (centres undefined)
parameter measured: activation
reported: inactive
--
compound: O=C(C(=O)c1ccco1)c1ccco1
parameter measured: activation
reported: inactive
--
compound: C=CCCCCCCCC
parameter measured: activation
reported: inactive
--
compound: O=Cc1cccc([N+](=O)[O-])c1
parameter measured: activation
reported: inactive

**Q:** I have this compound here, CC1CC(=O)CC(C)(C)C1 (centres undefined) , and I need its recorded activation.
**A:** inactive

**Q:** Entry to check: NS(=O)(=O)c1ccc(NC(=O)CCC(=O)O)cc1
**A:** inactive

---

# protocol text: Nuclear factor erythroid 2-related factor 2/antioxidant responsive element (Nrf2/ARE) small molecule agonists: luciferase reporter gene qHTS assay in human keratinocytes (AID 1919969); note: nearly all actives have a fitted effect of over 35% in size
# condition label: KeratinoSens HaCaT ARE-luciferase, luminescence, 24 h; series mostly up to 92.4 µM
Records with an inconclusive call do not appear. The source made the active and inactive calls. Calls follow the shape of the full dose curve.
Could you please pick one outcome from this set? active, inactive

**Q:** Recorded call for Nc1ccc2cc3ccccc3cc2c1 ?
**A:** inactive

**Q:** Entry to check: Clc1cc(Cl)c(Cl)c(Cl)c1Cl
**A:** inactive

**Q:** Entry to check: O=C1CCC(=O)N1
**A:** inactive

**Q:** Entry to check: CCCCCCOC(=O)CC
**A:** inactive

**Q:** Entry to check: CN1Cc2c(N)cccc2C(c2ccccc2)C1 (configuration not stated)
**A:** inactive

**Q:** Entry to check: Cc1cc(O)cc2c1O[C@](C)(CCC[C@H](C)CCC[C@H](C)CCCC(C)C)CC2
**A:** inactive

**Q:** Entry to check: CC(C)(C)C(=O)OCOC(=O)C1N2C(=O)CC2S(=O)(=O)C1(C)C (configuration not stated)
**A:** inactive

**Q:** Entry to check: Cc1ccc(S(=O)(=O)NC2CCCCC2)cc1
**A:** inactive

**Q:** Entry to check: CCCC=O
**A:** inactive

**Q:** Entry to check: O=S(=O)(O)c1ccccc1O
**A:** inactive

**Q:** Entry to check: O=C(O)c1cc(-c2ccccc2)nc2ccccc12
**A:** inactive

**Q:** Entry to check: C1=Cc2ccccc2C1
**A:** inactive

**Q:** Entry to check: CCC(CC)C(C)CCOC(C)=O (configuration not stated)
**A:** inactive

**Q:** Entry to check: O=C(CCCN1CCC(O)(c2cccc(C(F)(F)F)c2)CC1)c1ccc(F)cc1
**A:** inactive

**Q:** Entry to check: CCCCCCCCC1CCC(=O)O1 (configuration not stated)
**A:** inactive

**Q:** Entry to check: CCN1CCCC(OC(=O)C(c2ccccc2)c2ccccc2)C1 (configuration not stated)
**A:** inactive

**Q:** Entry to check: C=C[C@H]1CN2CC[C@H]1C[C@@H]2[C@@H](O)c1ccnc2ccc(OC)cc12
**A:** inactive

**Q:** Entry to check: CCCOC(C)=O
**A:** inactive

**Q:** Entry to check: CC(C)c1ccc2c(C(C)C)cc(C(C)C)c(S(=O)(=O)O)c2c1
**A:** inactive

**Q:** Entry to check: CCOC(=O)CCC(C)=O
**A:** inactive

**Q:** Entry to check: CC(C)OC(=O)C(O)(CC(=O)O)CC(=O)O
**A:** inactive

**Q:** Entry to check: O=C1CCCCC1
**A:** inactive

**Q:** Entry to check: CC(=O)C1(C)CC2=C(CCCC2(C)C)CC1C (configuration not stated)
**A:** inactive

**Q:** Entry to check: O=C1NC(=O)[C@@]2(CCOc3ccc(F)cc32)N1
**A:** inactive

**Q:** Entry to check: O=[N+]([O-])c1ccc2nc[nH]c2c1
**A:** inactive

**Q:** Entry to check: CCCc1cc(C(N)=S)ccn1
**A:** inactive

**Q:** Entry to check: O=C(O)C(S)C(S)C(=O)O (configuration not stated)
**A:** inactive

**Q:** Entry to check: CC(=O)c1ccc2c(c1)CCCC2
**A:** inactive

**Q:** Entry to check: OC[C@H]1O[C@H](O[C@H]2O[C@H](CO)[C@@H](O)[C@H](O)[C@H]2O)[C@H](O)[C@@H](O)[C@@H]1O
**A:** inactive

**Q:** Entry to check: N#Cc1ccc(C2CCCc3cncn32)cc1 (configuration not stated)
**A:** inactive

**Q:** Entry to check: O=S(=O)(O)CCS
**A:** inactive

**Q:** Entry to check: N[C@@H](Cc1c[nH]c2ccccc12)C(=O)O
**A:** inactive

**Q:** Entry to check: CCCCCCCCc1ccc(Nc2ccc(CCCCCCCC)cc2)cc1
**A:** inactive

**Q:** Entry to check: O=C(O)c1cccc(Cl)c1Cl
**A:** inactive

**Q:** Entry to check: CC1=CC[C@@]23C[C@@H]1C(C)(C)[C@@H]2CC[C@H]3C
**A:** inactive

**Q:** Entry to check: CCCCCCCCCCCCOCC1CO1 (configuration not stated)
**A:** active

**Q:** Entry to check: O=S(=O)(O)CCN1CCN(CCO)CC1
**A:** inactive

**Q:** Entry to check: CC(C)CCO
**A:** inactive

**Q:** Entry to check: NCCN1CCNC1=O
**A:** inactive

**Q:** Entry to check: CCCCN(CCO)CCO
**A:** inactive

**Q:** Entry to check: CC(=O)O[C@H](CC(=O)[O-])C[N+](C)(C)C
**A:** inactive

**Q:** Entry to check: COS(C)(=O)=O
**A:** inactive

**Q:** Entry to check: Clc1nc(Cl)c(Cl)c(Cl)c1Cl
**A:** inactive

**Q:** Entry to check: C1COC1
**A:** inactive

**Q:** Entry to check: CC(=O)OCC(=O)Nc1cc(C#N)cc(NC(=O)COC(C)=O)c1Cl
**A:** inactive

**Q:** Entry to check: O=C(Cl)c1ccccc1[N+](=O)[O-]
**A:** inactive

**Q:** Entry to check: NC(=O)Nc1ccc(Cl)cc1
**A:** inactive

**Q:** Entry to check: CC1(C)[C@H](C(=O)OCc2cccc(Oc3ccccc3)c2)[C@@H]1C=C(Cl)Cl
**A:** inactive

**Q:** Entry to check: O=[N+]([O-])c1ccc(Oc2ccc([N+](=O)[O-])cc2)cc1
**A:** inactive

**Q:** Entry to check: C=CCCC(=O)/C=C/C1C(C)=CCCC1(C)C (configuration not stated)
**A:** active

**Q:** Entry to check: CC(C)C(=O)Nc1cccc(C2CN3CCSC3=N2)c1 (configuration not stated)
**A:** inactive

**Q:** Entry to check: CCO[Si](C)(C)OCC
**A:** inactive

**Q:** Entry to check: COc1ccc(N)c(C)c1
**A:** inactive

**Q:** Entry to check: CC(C)(c1cc(Br)c(OCC(Br)CBr)c(Br)c1)c1cc(Br)c(OCC(Br)CBr)c(Br)c1 (configuration not stated)
**A:** inactive

**Q:** Entry to check: COc1cccc(OC)c1O
**A:** inactive

**Q:** Entry to check: NNS(=O)(=O)c1ccc(Oc2ccc(S(=O)(=O)NN)cc2)cc1
**A:** inactive

**Q:** Entry to check: NCCCN1CCN(CCCN)CC1
**A:** inactive
